self-cleavage values for the variants below.
B1: Hairpin Ribozyme (parent)
chain: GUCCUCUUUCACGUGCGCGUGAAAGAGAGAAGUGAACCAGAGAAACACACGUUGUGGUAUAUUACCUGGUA

# Variants of: B1
# Assay Protocol: self-cleavage, relative activity (ratio to wild type); higher = more cleavage; co-transcriptional
Enter a number only.

>  <Variant Description>
G27A A35G

>  <self-cleavage>
0.449

$$$$
>  <Variant Description>
A31G C50U

>  <self-cleavage>
0.266

$$$$
>  <Variant Description>
G1C A49C

>  <self-cleavage>
0.159

$$$$

In: # get_value(readout='self-cleavage', item= U9C U53C )
Out: 0.741

In: Would you mind doing C12G A44U as well?
Out: 0.147

In: Would you mind doing C18U G42U as well?
Out: 0.407
